meta.source: paper PMC9482650

Target: NHERF2_2, Q15599
Sequence (Q15599 142-238): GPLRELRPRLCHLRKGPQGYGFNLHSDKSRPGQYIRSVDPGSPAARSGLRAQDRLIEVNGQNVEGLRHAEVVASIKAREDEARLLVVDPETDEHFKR
Test: holdup assay
Design: key: below the threshold = too weak to quantify, mostly under pKd 3.1 to 4
Settings: plain residues with an end cap or a label only (N-terminal biotin on a linker: ado-ado)
experimental endpoint: pKd

Illustrative cases are given below, each with its answer.
[[record]]
binder = "QPCFNKLFPL [LPXN, O60711]"
assay_result = "below the threshold"

[[record]]
binder = "VNKSKLLTDV [KCNA1, Q09470]"
assay_result = "below the threshold"

[[record]]
binder = "QHKTQLQTLI [BPIFA2, Q96DR5]"
assay_result = 3.58

[[record]]
binder = "VDSTVKVWTC [TRAF7, Q6Q0C0]"
assay_result = "below the threshold"

[[record]]
binder = "ETQVTAETVI [TMEM225B, P0DP42]"
assay_result = "below the threshold"

[[record]]
binder = "QSLNRMEYIV [JAG1, P78504]"
assay_result = "below the threshold"


Tell me its pKd given QMNQTLPVQV [EPHB3, P54753] as the entry.
3.51

Tell me its pKd given YNNCLEILRV [DCAF7, P61962] as the entry.
below the threshold
